Origin of the recorded values: ChEMBL document CHEMBL3988442

# Test system: Trypanosoma brucei
# EXPERIMENT_NOTES: Trypanosoma brucei 72 hour study
# Format: functional, organism-based
# Parameters: scale not given: in the data most compounds retested in dose-response had high values
# ASSAY_CONTEXT: 30.3 µM; […]
About 960 (1.5%) of roughly 66,000 compounds showed an effect of 50% or more. The sample holds strong results, similar compounds and a random draw of the others, so the mix is not that of the screen.
For each record, write down the corresponding Percent Effect.
Report the value in % with no unit label.

Problem: # get_value(readout= Percent Effect, system= Trypanosoma brucei) for CN1CCC(c2cccc(Cc3ccc(F)cc3)n2)CC1
Solution: 22.86

Problem: # get_value(readout= Percent Effect, system= Trypanosoma brucei) for CC(=O)N1CCCC1c1cccc(NCc2ccccc2F)n1 (centres undefined)
Solution: -16.97

Problem: # get_value(readout= Percent Effect, system= Trypanosoma brucei) for CN(C)C(=O)CN1CCCC1c1cccc(Cc2ccccc2F)n1 (centres undefined)
Solution: 100.6

Problem: # get_value(readout= Percent Effect, system= Trypanosoma brucei) for CC(=O)N1CCCC1c1cccc(Cc2ccccc2Cl)n1 (centres undefined)
Solution: 2.284
